# Test system: Fibroblast
# experimentDescription: Multiplex assay against human fibroblast
# Type: toxicity, cell-based
# setupConditions: 24 h, 1 µM, compound concentration 1 uM, replicate 2
Binned Population Apoptotic (%); ranges: bucket A = under 20%, bucket B = from 20% up to 60%, bucket C = 60% and over

Req: # bin lookup: classify c1cn2cc(-c3ccc4cn[nH]c4c3)nc(Nc3ccc(N4CCOCC4)cc3)c2n1 [ENTOSPLETINIB] by its Population Apoptotic (%)
Resp: bucket A

Req: Class (by measured Population Apoptotic (%)) for Cc1nc(Nc2n[nH]c3c2CN(C(=O)N[C@H](CN(C)C)c2ccccc2)C3(C)C)c2sccc2n1 [PF-03758309]
Resp: bucket C

Req: Into which category would you place `COc1cc2nccc(Oc3ccc(NC(=O)Nc4cc(C)on4)c(Cl)c3)c2cc1OC.O` ?
Resp: bucket B

Req: Which bin should I file O=C1NCN(c2ccccc2)C12CCN(CCCOc1ccc(F)cc1)CC2 [SPIRAMIDE] under?
Resp: bucket A

Req: Band of C[C@@H](NCCCc1cccc(C(F)(F)F)c1)c1cccc2ccccc12.Cl [CINACALCET HYDROCHLORIDE] ?
Resp: bucket B

Req: Category of Cc1nc(-c2ccc(-c3ccc(C(=O)N4CCc5cc6c(cc54)C4(CCN(C)CC4)CO6)cc3)c(C)c2)no1 [SB-224289] :
Resp: bucket A

Req: // return the class label for `C=CC(=O)Nc1ccc2ncnc(Nc3ccc(OCc4cccc(F)c4)c(Cl)c3)c2c1.Cc1ccc(S(=O)(=O)O)cc1`
Resp: bucket B

Req: Using the reported Population Apoptotic (%), which band applies to `Cn1cc(-c2[nH]c3cc(NC(=O)[C@H](N)C4CCCCC4)cc4c3c2C=NNC4=O)cn1` ?
Resp: bucket B

Req: Which class is correct for the following compound? CN1CCC[C@@H]1CCO[C@](C)(c1ccccc1)c1ccc(Cl)cc1.O=C(O)/C=C/C(=O)O [CLEMASTINE FUMARATE]
Resp: bucket A

Req: Into which bin does this compound go? CC(C)NCC(O)COc1ccc(CCOCC2CC2)cc1.Cl (stereo unspecified) [BETAXOLOL HYDROCHLORIDE]
Resp: bucket B

Req: Which class is correct for the following compound? C[C@@]1(C(=O)Nc2ccc(F)nc2)CCCN1c1nc(Nc2cc(C3CC3)n[nH]2)c2cccn2n1 [BMS-754807]
Resp: bucket C

Req: Into which bin does this compound go? CN1CCN(c2ccc(OC(F)(F)F)c(Nc3ncc4c(n3)-c3c(c(C(N)=O)nn3CCO)CC4)c2)CC1 [ONVANSERTIB]
Resp: bucket B

Req: Hi, small favor: classify `Cc1cc(C)cc(-c2cnc3cc(Cl)c(-c4cccc(O)c4)cc3c2OCCCN)c1` by its Population Apoptotic (%) when you get a moment.
Resp: bucket C

Req: Hey, which category is `C=CC(=O)Nc1cccc(C(=O)Nc2ccc(Nc3cc(-c4[nH]c(SC)nc4C)ccn3)cc2)c1` in, do you know?
Resp: bucket B

Req: Given CC[C@H](C)C(=O)O[C@H]1C[C@@H](C)C=C2C=C[C@H](C)[C@H](CC[C@@H]3C[C@@H](O)CC(=O)O3)[C@H]21 [LOVASTATIN] , name the class its Population Apoptotic (%) places it in.
Resp: bucket B

Req: Dear colleague, I would appreciate it if you could identify the bin for `CN(C)C(=O)/C(C#N)=C/c1ccc(-c2nc3cnc4[nH]ccc4c3n2C2CCCCC2)o1` and reply at your convenience.
Resp: bucket B

Req: # classify by Population Apoptotic (%) band: Nc1c(C(=O)NCc2ccc(C(=O)NCCCC3CCCCC3)cc2)cnn1-c1ccccc1 [SR-318]
Resp: bucket B

Req: State the band of CN1CCN(CCOc2cc(OC3CCOCC3)c3c(Nc4c(Cl)ccc5c4OCO5)ncnc3c2)CC1 [SARACATINIB]
Resp: bucket B

Origin of values: ChEMBL document CHEMBL4689842
